- Tested on: BAEC cells (bovine aortic endothelial)
- experimental.details: In vitro inhibition of CHP-induced oxidative stress (DCF fluorescence) in BAEC cells
- Assay type: cell-based
- run.conditions: 500 µM CHP, compound 4, 20, 100 and 500 µM, 30 minutes at 37 °C, range given for both cell lines together
- Procedure: The method used was essentially the one reported by Rüweler M. et al. ("Inhibition of peroxide-induced radical generation by plant polyphenols in C6 astroglioma cells" (2008) Toxicol in vitro 22, 1377-81), with a few minor modifications. The cells were seeded in phenol-red free DMEM (Sigma Aldrich) into 96-well plates with 5% FBS and 20 mM HEPES at a density of 40,000 cells/well. […] The intensity of DCF fluorescence is directly proportional to the amount of RS formed. […]
metric.name: Inhibition of CHP-induced fluorescence

molecule: CC1(C)CC(=O)C=C(NCCN2CCCCC2)C1
target: BAEC cells (bovine aortic endothelial)
metric.name: Inhibition of CHP-induced fluorescence
result: effective
//
molecule: CC1=NN(c2ccccc2)C(=O)C1 [edaravone, reference compound]
target: BAEC cells (bovine aortic endothelial)
metric.name: Inhibition of CHP-induced fluorescence
result: 10-50%
//
molecule: O=C1C=C(NCCN2CCCCC2)CC(c2ccccc2)C1 (stereo not shown)
target: BAEC cells (bovine aortic endothelial)
metric.name: Inhibition of CHP-induced fluorescence
result: effective
//
molecule: Cc1c(C)c2c(c(C)c1O)CCC(C)(C(=O)O)O2 (stereo not shown) [Trolox, reference compound]
target: BAEC cells (bovine aortic endothelial)
metric.name: Inhibition of CHP-induced fluorescence
result: 10-50%
